Assay: Toxicity liver stage against HepG2, at 10uM
Type: cell-based
Parameters: test concentration 10 uM, cell line HepG2-A16-CD81EGFP
Conditions: human, HepG2-A16-CD81EGFP cells; read-out: INHIBITION
measurement name: cytotoxicity at 10 µM

>  <compound>
O=C(N[C@@H]1CCN(c2ncc(Cl)cc2Cl)C[C@H]1O)c1cnccn1

>  <result>
-8.92%

$$$$
>  <compound>
CC(=O)Nc1ccc(CNCC(O)c2ccccc2)cc1 (configuration not stated)

>  <result>
-10.1%

$$$$
>  <compound>
COc1cccc(-c2nc(C)c(C(=O)N[C@H](CO)CCSC)s2)c1

>  <result>
4.63%

$$$$
>  <compound>
CCNS(=O)(=O)C1CCN(C(=O)c2ccc(F)cc2)C1 (configuration not stated)

>  <result>
7.98%

$$$$
>  <compound>
NC(=O)C1(CNCc2csc(-c3cccs3)n2)CCOCC1

>  <result>
-19.3%

$$$$
>  <compound>
CCN(CC)C(=O)c1ccn(COc2cc(C)cc(C)c2)n1

>  <result>
13.9%

$$$$
>  <compound>
CN(Cc1cncnc1)Cc1cn2c(n1)CN(C1CCOC1)CC2 (configuration not stated)

>  <result>
-9.36%

$$$$

* * *

Assay: Toxicity liver stage against HepG2, at 10uM
Assay type: cell-based
Parameters: test concentration 10 uM, cell line HepG2-A16-CD81EGFP
Details: human, HepG2-A16-CD81EGFP cells; read-out: INHIBITION
As shown below, each of these compounds has a reported cytotoxicity at 10 µM value.

>  <compound>
Cc1c(Br)cccc1C(=O)NCC1CCCNC1 (centres undefined)

>  <cytotoxicity at 10 µM (%)>
19.8

$$$$
>  <compound>
O=C(NCC1CC1)C1=NOC2(CCN(Cc3ccc4c(c3)OCO4)C2)C1 (centres undefined)

>  <cytotoxicity at 10 µM (%)>
-12.1

$$$$
>  <compound>
O=C(Nc1nc(-c2ccccc2)ns1)N1CC[C@H](O)C1

>  <cytotoxicity at 10 µM (%)>
10.5

$$$$
>  <compound>
COc1ccc(Cl)cc1NCC(=O)N(Cc1cccnc1)C1CC1

>  <cytotoxicity at 10 µM (%)>
11.8

$$$$

* * *

Test: Toxicity liver stage against HepG2, at 10uM
Type: cell-based
Set-up: test concentration 10 uM, cell line HepG2-A16-CD81EGFP
Conditions: human, HepG2-A16-CD81EGFP cells; read-out: INHIBITION
As shown below, each of these compounds has a reported cytotoxicity at 10 µM value.
measurement name: cytotoxicity at 10 µM (%)

>  <compound>
Cn1ccnc1COc1ccc(NC(=O)C2CCCO2)cc1 (stereo not drawn)

>  <measurement name>
cytotoxicity at 10 µM

>  <unit abbrev>
%

>  <recorded number>
-14.9

$$$$
>  <compound>
COc1cc(-c2cnnc(NCCCOC(C)C)n2)cc(OC)c1OC

>  <measurement name>
cytotoxicity at 10 µM

>  <unit abbrev>
%

>  <recorded number>
3.51

$$$$
>  <compound>
CN1CCc2nc(C3CCCN(S(=O)(=O)c4ccccc4)C3)ncc2C1 (stereo not drawn)

>  <measurement name>
cytotoxicity at 10 µM

>  <unit abbrev>
%

>  <recorded number>
2.67

$$$$

* * *

Experiment: Toxicity liver stage against HepG2, at 10uM
Format: cell-based
Design: test concentration 10 uM, cell line HepG2-A16-CD81EGFP
Conditions: human, HepG2-A16-CD81EGFP cells; read-out: INHIBITION
measurement name: cytotoxicity at 10 µM (%)

>  <compound>
Cc1ccc2nc(C)c(C)c(C(=O)N3CCN(c4nccs4)CC3)c2c1

>  <recorded number>
3.96

$$$$
>  <compound>
Cc1ccc(CN2CC3(CCN(C(=O)Cc4ccc(Cl)cc4)C3)C2)o1

>  <recorded number>
6.11

$$$$
>  <compound>
O=C(Cc1cccs1)NCC1COCc2c(-c3ccoc3)nnn2C1 (stereo not given)

>  <recorded number>
19

$$$$
>  <compound>
CSCc1ccc(C(=O)NCCCNc2ccc(C(F)(F)F)cn2)cc1

>  <recorded number>
3.84

$$$$
>  <compound>
COC1C[C@@H]2CN(C(=O)c3ccc(C)s3)C[C@@H]2C1 (stereo not given in full)

>  <recorded number>
-2

$$$$

* * *

Test: Toxicity liver stage against HepG2, at 10uM
Format: cell-based
Set-up: test concentration 10 uM, cell line HepG2-A16-CD81EGFP
Conditions: human, HepG2-A16-CD81EGFP cells; read-out: INHIBITION
As shown below, each of these molecules has a reported cytotoxicity at 10 µM value.

>  <molecule>
COc1ccc(SC(C)C(=O)N2CCC(O)CC2)cc1 (stereo unspecified)

>  <cytotoxicity at 10 µM>
0.887%

$$$$
>  <molecule>
Cc1nc(CN2C(=O)COC3(CCN(Cc4ccsc4)CC3)C2C)cs1 (stereo unspecified)

>  <cytotoxicity at 10 µM>
-123%

$$$$
>  <molecule>
CN1CCCN(C(=O)NCc2cccnc2-n2cccn2)CC1

>  <cytotoxicity at 10 µM>
-17.9%

$$$$
>  <molecule>
COc1c(CNC2CCN(c3ccccn3)CC2)c(C(C)C)nn1C

>  <cytotoxicity at 10 µM>
-8.06%

$$$$
>  <molecule>
COCCOc1ccc(CNCC2CNc3cc(C)nn3C2)cn1 (stereo unspecified)

>  <cytotoxicity at 10 µM>
-10.7%

$$$$
>  <molecule>
O=C(c1[nH]nc(C2CC2)c1Cl)N1CCN(S(=O)(=O)c2ccccc2)CC1

>  <cytotoxicity at 10 µM>
16%

$$$$

* * *

As shown below, each of these compounds has a reported cytotoxicity at 10 µM value.
Test: Toxicity liver stage against HepG2, at 10uM
Type: cell-based
Set-up: test concentration 10 uM, cell line HepG2-A16-CD81EGFP
Details: human, HepG2-A16-CD81EGFP cells; read-out: INHIBITION

>  <compound>
Cn1ccnc1CN1CCN(CCOc2cccc(C#N)c2)CC1

>  <cytotoxicity at 10 µM (%)>
-18

$$$$
>  <compound>
Cc1nc(C(C)C)sc1C(C)N(C)C(=O)c1ccc(=O)n(C)n1 (stereo unspecified)

>  <cytotoxicity at 10 µM (%)>
-1.94

$$$$
>  <compound>
OC(CN(Cc1ccccc1)Cc1ccon1)c1cccs1 (stereo unspecified)

>  <cytotoxicity at 10 µM (%)>
-0.359

$$$$
>  <compound>
Cc1ccc(C(=O)N2CC3(CCNCC3)c3cc(Cl)ccc32)cn1

>  <cytotoxicity at 10 µM (%)>
1.61

$$$$
>  <compound>
Cc1ccc(N2CCO[C@H]3CN(Cc4cccs4)C[C@H]32)nn1

>  <cytotoxicity at 10 µM (%)>
-75.6

$$$$
>  <compound>
Cc1cc(N2CCC(Cc3ccccc3)CC2)ncn1

>  <cytotoxicity at 10 µM (%)>
3.51

$$$$

* * *

As shown below, each of these compounds has a reported cytotoxicity at 10 µM value.
Experiment: Toxicity liver stage against HepG2, at 10uM
Assay type: cell-based
Design: test concentration 10 uM, cell line HepG2-A16-CD81EGFP
Settings: human, HepG2-A16-CD81EGFP cells; read-out: INHIBITION

>  <compound>
CCOC(C(=O)N1CCn2c(nnc2C(C)C)C1)c1ccccc1 (stereo not given)

>  <cytotoxicity at 10 µM / %>
3.84

$$$$
>  <compound>
O=C(NCCc1cccnc1)C1CCCN(Cc2ccco2)C1 (stereo not given)

>  <cytotoxicity at 10 µM / %>
-3.98

$$$$
>  <compound>
COc1cc(N2C[C@@H](C)[C@](O)(C3CC3)C2)ncn1

>  <cytotoxicity at 10 µM / %>
-0.714

$$$$
>  <compound>
Cn1cc(C[C@H]2[C@H](N3CCOCC3)CCN2C(=O)c2ccoc2)cn1

>  <cytotoxicity at 10 µM / %>
-81.5

$$$$
>  <compound>
O=C(c1ccc(=O)[nH]n1)N1CC(c2nc(Cc3ccccc3)no2)C1

>  <cytotoxicity at 10 µM / %>
-19.3

$$$$
>  <compound>
Cc1nc(C)c(C(=O)N2CCC(O)(Cn3ccc4ccncc43)CC2)s1

>  <cytotoxicity at 10 µM / %>
-21.7

$$$$
>  <compound>
COc1cccc2c1N(Cc1nc(C3CC3)no1)CCC2

>  <cytotoxicity at 10 µM / %>
11.2

$$$$
>  <compound>
CSC1(CNC(=O)NC(C)c2ccc(F)cc2)CCOCC1 (stereo not given)

>  <cytotoxicity at 10 µM / %>
6.88

$$$$
>  <compound>
COc1ccc(C(C(=O)O)N2CCCN(C3CCCCC3)CC2)cn1 (stereo not given)

>  <cytotoxicity at 10 µM / %>
13.3

$$$$
>  <compound>
CCCC(=O)NC1CCc2c(ccc(=O)n2Cc2csc(C)n2)C1 (stereo not given)

>  <cytotoxicity at 10 µM / %>
3.79

$$$$
>  <compound>
COCCn1ccc(=O)c(OCC(=O)Nc2ccc(OC)c(Cl)c2)c1C

>  <cytotoxicity at 10 µM / %>
5.36

$$$$
>  <compound>
Cc1ccccc1C1(CNCc2cnc(N3CCOCC3)nc2)CC1

>  <cytotoxicity at 10 µM / %>
-8.23

$$$$
>  <compound>
Cc1cc(CN2CCCC(c3cc(C(F)(F)F)[nH]n3)C2)no1 (stereo not given)

>  <cytotoxicity at 10 µM / %>
-0.674

$$$$
>  <compound>
CC1CCN(C(=O)CSCc2nc(C3CC3)no2)CC1

>  <cytotoxicity at 10 µM / %>
1.26

$$$$
>  <compound>
CCC1=N[C@@]2(CC[C@@H]3CN(CC4CC4)C[C@@H]32)C(=O)N1

>  <cytotoxicity at 10 µM / %>
4.86

$$$$
>  <compound>
COCCn1cc2c(n1)C(CNCc1cccc(OC)c1)OCC2 (stereo not given)

>  <cytotoxicity at 10 µM / %>
-4.52

$$$$
>  <compound>
O=C(CN(Cc1ccco1)C1CC1)Nc1ccc(Br)cn1

>  <cytotoxicity at 10 µM / %>
-2.65

$$$$
>  <compound>
COc1ccc(-c2nc(CN3CC(n4nc(C)cc4C)C3)no2)cc1

>  <cytotoxicity at 10 µM / %>
-3.88

$$$$
>  <compound>
CCOC(C)c1nc(COc2nc(C)no2)cs1 (stereo not given)

>  <cytotoxicity at 10 µM / %>
-1.64

$$$$
>  <compound>
CNC(=O)CS(=O)(=O)Cc1ccc(OC)c(F)c1

>  <cytotoxicity at 10 µM / %>
-6.7

$$$$
>  <compound>
Cc1nc(-c2cnn(C)c2)nc2c1CN(C(=O)c1cccnc1)CC2

>  <cytotoxicity at 10 µM / %>
2.68

$$$$
>  <compound>
Cc1nc(CN(C)C2CCN(Cc3cccc(F)c3)C2)no1 (stereo not given)

>  <cytotoxicity at 10 µM / %>
-15

$$$$
>  <compound>
Cc1ccc2c(c1)c(CNC(=O)C1CC(=O)N(CCN(C)C)C1)nn2C (stereo not given)

>  <cytotoxicity at 10 µM / %>
1.66

$$$$
>  <compound>
CCn1c(SCC(=O)N2CCOCC2)nc2cc(C)[nH]c2c1=O

>  <cytotoxicity at 10 µM / %>
7.72

$$$$
>  <compound>
CCCN1CCN(C(=O)C(C)n2cc(Br)cn2)CC1 (stereo not given)

>  <cytotoxicity at 10 µM / %>
-18.8

$$$$
>  <compound>
Cc1cc(Nc2ccccn2)nc(C2CCCN(CCO)C2)n1 (stereo not given)

>  <cytotoxicity at 10 µM / %>
1.26

$$$$
>  <compound>
N#Cc1ccc(C(=O)NS(=O)(=O)c2ccc(F)c(F)c2)cc1

>  <cytotoxicity at 10 µM / %>
-4.11

$$$$
>  <compound>
COc1ccc(F)cc1C(C)NC(=O)Cn1ccc(=O)n(C)c1=O (stereo not given)

>  <cytotoxicity at 10 µM / %>
-8.35

$$$$
>  <compound>
CN(C)c1ncc(CNC(=O)Nc2ccccc2C(F)(F)F)n1C

>  <cytotoxicity at 10 µM / %>
-55.3

$$$$
>  <compound>
O=C(NCCNc1ncccn1)N1CCCC1

>  <cytotoxicity at 10 µM / %>
-12.8

$$$$
>  <compound>
CCCN(CCc1ccccn1)C(=O)Cn1cc(C)cn1

>  <cytotoxicity at 10 µM / %>
-9.22

$$$$
>  <compound>
COc1ccc2cc(C3CN(C(=O)COC(C)C)CCO3)ccc2c1 (stereo not given)

>  <cytotoxicity at 10 µM / %>
7.29

$$$$
>  <compound>
O=C(CN1CCCC1Cn1cncn1)Nc1ccnn1C1CCCC1 (stereo not given)

>  <cytotoxicity at 10 µM / %>
-1.07

$$$$
>  <compound>
COCCN1C[C@@H](C)[C@@]2(COCCN(C(=O)c3ccoc3)C2)C1

>  <cytotoxicity at 10 µM / %>
7.4

$$$$
>  <compound>
COCCN1C(=O)[C@@H]2CC[C@H]1CN(Cc1nnc(C3CC3)o1)C2

>  <cytotoxicity at 10 µM / %>
11.6

$$$$
